System: TRZAWR (Wheat, Winter, cv Riband)
testProtocol: Preemergence herbicidal evaluation
Type: in vivo, Triticum aestivum
measurementConditions: rate 0.0625 kg/ha; rated 4-5 weeks after treatment; rating scale 0-9
valueType: Preemergence herbicidal rating TRZAWR

Fill in: TRZAWR (Wheat, Winter, cv Riband) Preemergence herbicidal rating TRZAWR for CCOC(=O)CN1C(=O)C(COC)SC1=Nc1cc(-n2c(=O)cc(C(F)(F)F)n(C)c2=O)c(F)cc1Cl (stereo not drawn) = 0.0

Fill in: TRZAWR (Wheat, Winter, cv Riband) Preemergence herbicidal rating TRZAWR for C=C1SC(=Nc2cc(-n3c(=O)cc(C(F)(F)F)n(C)c3=O)c(F)cc2Cl)N(CC(=O)OCC)C1=O = 8.0

Fill in: TRZAWR (Wheat, Winter, cv Riband) Preemergence herbicidal rating TRZAWR for Cn1c(C(F)(F)F)cc(=O)n(-c2cc(N=C3SCC(=O)N3Cc3ccncc3)c(Cl)cc2F)c1=O = 0.0

###

Provide the recorded Herbicidal rating ECHORC for the entries that follow.
System: ECHORC (Watergrass (Calif.))
testProtocol: Postemergence weed control under flooded paddy conditions
Type: in vivo, Echinochloa oryzoides
measurementConditions: Rate 0.0625 kg/ha, postemergence weeds, rated 3 to 4 weeks after treatment
Source text: Results of herbicide evaluation are expressed on a rating scale (0-9). The scale is based upon a visual observation of plant stand, vigor, malformation, size, chlorosis and overall plant appearance as compared with a control. Plastic containers containing weeds which are 3 to 5 cm tall and rice seedlings at the 1.5 to 2.5 leaf stage are flooded with water. […] The compounds evaluated are reported by compound number given in Example 37.
Field format: numeric only.

Fill in: ECHORC (Watergrass (Calif.)) Herbicidal rating ECHORC for COC(=O)C(Cc1ccc(Cl)cc1)N1C(=O)CSC1=Nc1cc(-n2c(=O)cc(C(F)(F)F)n(C)c2=O)c(F)cc1Cl (racemic) = 9.0

Fill in: ECHORC (Watergrass (Calif.)) Herbicidal rating ECHORC for C=CCN1C(=O)C(CC(=O)OCCF)SC1=Nc1cc(-n2c(=O)cc(C(F)(F)F)n(C)c2=O)c(F)cc1Cl (stereo not drawn) = 6.0

Fill in: ECHORC (Watergrass (Calif.)) Herbicidal rating ECHORC for CC(C)S(=O)(=O)NC(=O)CC1SC(=Nc2cc(-n3c(=O)cc(C(F)(F)F)n(C)c3=O)c(F)cc2Cl)N(C)C1=O (stereo not drawn) = 2.0

###

System: CASOB (Sicklepod)
testProtocol: Preemergence herbicidal evaluation
Format: in vivo, Cassia obtusifolia
measurementConditions: rate 0.2500 kg/ha; rated 4-5 weeks after treatment
Provide the recorded Preemergence herbicidal rating CASOB for the entries that follow.
Field format: numeric only.

The compound listed as Cn1c(C(F)(F)F)cc(=O)n(-c2cc(/N=C3/SC(CC(=O)O)C(=O)N3CC(=O)O)c(Cl)cc2F)c1=O (centres unmarked) has a reported Preemergence herbicidal rating CASOB of 1.0

The compound listed as CCOC(=O)CN1C(=O)C(Cc2ccccc2OCC(=O)O)S/C1=N/c1cc(-n2c(=O)cc(C(F)(F)F)n(C)c2=O)c(F)cc1Cl (centres unmarked) has a reported Preemergence herbicidal rating CASOB of 0.0

The compound listed as COC(=O)CCCN1C(=O)CSC1=Nc1cc(-n2c(=O)cc(C(F)(F)F)n(C)c2=O)c(F)cc1Cl has a reported Preemergence herbicidal rating CASOB of 0.0

The compound listed as CCOC(=O)CN1CC(=O)N(CC(=O)OCC)C1=Nc1cc(-n2c(=O)cc(C(F)(F)F)n(C)c2=O)c(F)cc1Cl has a reported Preemergence herbicidal rating CASOB of 0.0

The compound listed as Cn1c(C(F)(F)F)cc(=O)n(-c2cc(N=C3SCC(=O)N3Cc3ccccc3)c(Cl)cc2F)c1=O has a reported Preemergence herbicidal rating CASOB of 0.0

Each recorded value in this set is attributed to patent US20020137929A1.
